Tested on: Colletotrichum lindemuthianum
Assay: Colletotrichum lindemuthianum in vitro cell test
Assay type: cell-based
Conditions: 144 h, 50 μMol/l of active ingredient, liquid culture, 6 days incubation, read-out: efficacy (inhibition of fungal growth)
outcomeMeasure: inhibition at 50 µM

compound="Cc1ccc([C@H]2CON=C(c3c(Sc4ccc(F)c(Cl)c4)nnc4ccccc34)N2)s1 (racemic)" observedmeasurement="90 to 100%"
compound="Cc1ccc([C@H]2CON=C(c3c(Sc4cccc(C(F)(F)F)c4)nnc4ccccc34)N2)s1 (racemic)" observedmeasurement="90 to 100%"
compound="Cc1cc([C@H]2CON=C(c3c(Sc4ccc(F)c(F)c4)nnc(C)c3C)N2)c(C)s1 (racemic)" observedmeasurement="90 to 100%"
compound="Cc1cccc(Sc2nnc3ccccc3c2C2=NOC[C@H](c3ccc(C)s3)N2)n1 (racemic)" observedmeasurement="90 to 100%"
